molecular target: soluble DR 11 (DRB1*1101) class II molecules purified from SWEIG EBV-B cells (human), P01903; assay: peptide competition ELISA, soluble DR 11, biotinylated indicator TT831-843
REPORTED_PROPERTY: IC50

(Q) Give the measured IC50 for DPNANPNVDPNANPNV (modifications not checked)
(A) > 100 µM
